- study system: Human Full Length PARG (Homo sapiens (Human), UniProt Q86W56)
- Sequence (Q86W56 whole entry): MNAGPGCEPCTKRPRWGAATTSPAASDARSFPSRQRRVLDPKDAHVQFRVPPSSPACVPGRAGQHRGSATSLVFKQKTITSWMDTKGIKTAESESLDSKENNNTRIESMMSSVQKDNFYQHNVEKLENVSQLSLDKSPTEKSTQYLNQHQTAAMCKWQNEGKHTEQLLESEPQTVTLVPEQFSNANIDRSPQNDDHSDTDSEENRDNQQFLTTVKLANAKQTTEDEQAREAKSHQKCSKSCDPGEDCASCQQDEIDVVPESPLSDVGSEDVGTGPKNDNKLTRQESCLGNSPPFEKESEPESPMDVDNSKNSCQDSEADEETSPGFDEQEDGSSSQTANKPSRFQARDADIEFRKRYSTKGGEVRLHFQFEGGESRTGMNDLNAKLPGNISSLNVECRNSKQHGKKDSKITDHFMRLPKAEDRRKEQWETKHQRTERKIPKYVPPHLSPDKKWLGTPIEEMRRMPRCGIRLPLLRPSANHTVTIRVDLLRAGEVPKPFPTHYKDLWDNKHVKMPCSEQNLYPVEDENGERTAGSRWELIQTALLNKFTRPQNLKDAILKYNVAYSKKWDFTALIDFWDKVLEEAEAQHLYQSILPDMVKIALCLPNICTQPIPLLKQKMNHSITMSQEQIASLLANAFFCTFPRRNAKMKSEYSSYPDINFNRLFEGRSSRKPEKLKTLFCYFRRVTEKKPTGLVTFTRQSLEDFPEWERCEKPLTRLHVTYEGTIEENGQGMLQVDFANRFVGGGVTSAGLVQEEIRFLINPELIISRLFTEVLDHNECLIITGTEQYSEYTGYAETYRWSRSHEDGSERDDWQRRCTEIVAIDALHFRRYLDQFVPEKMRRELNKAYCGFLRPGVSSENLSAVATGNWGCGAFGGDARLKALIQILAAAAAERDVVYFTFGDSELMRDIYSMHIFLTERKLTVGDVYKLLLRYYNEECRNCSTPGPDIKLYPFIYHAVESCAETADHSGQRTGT
- protocol notes: PARG enzyme assay (TR-FRET)
- Type: biochemical
- recorded conditions: read-out: PARG Biochem IC50
readout type: IC50 (nM)

I = Cc1cc(Cn2c(=O)c3cc(S(=O)(=O)NC4(C)CC4)ccc3n(CC(C)(C)C)c2=O)on1
II = Cc1ncc(Cn2c(=O)n(Cc3cnn(C)c3)c(=O)c3cc(S(=O)(=O)NC4(CF)CC4)ccc32)s1
III = CCCn1c(=O)n(Cc2cnn(C)c2)c(=O)c2cc(S(=O)(=O)NC3(CF)CC3)ccc21
IV = Cc1cc(Cn2c(=O)n(Cc3cnn(C)c3)c(=O)c3cc(S(=O)(=O)NC(C)(C)C)ccc32)n(C)n1
Input: Order the records by IC50, with each subsequent value no larger than the one before. // format: requested-order list of labels
Output: IV, I, III, II
